- SYSTEM_UNDER_TEST: Neu5Ac(a2-8)Neu5Ac(a2-8)Neu5Ac(a2-3)[GalNAc(b1-4)]Gal(b1-4)Glc
- ASSAY_DETAILS: glycan array binding signal (z-score within array); higher = stronger binding
- CONDITION_DETAILS: glycan notation: IUPAC condensed, linker removed
The entries come from a sample that favours the strongest signals as a whole.
Catalogue of glycan array binding signal (z-score) readings, one per entry.

{"columns": ["BINDER", "glycan array binding signal (z-score)"],
 "data": [
  ["NKp30 (Homo sapiens), O14931 (protein) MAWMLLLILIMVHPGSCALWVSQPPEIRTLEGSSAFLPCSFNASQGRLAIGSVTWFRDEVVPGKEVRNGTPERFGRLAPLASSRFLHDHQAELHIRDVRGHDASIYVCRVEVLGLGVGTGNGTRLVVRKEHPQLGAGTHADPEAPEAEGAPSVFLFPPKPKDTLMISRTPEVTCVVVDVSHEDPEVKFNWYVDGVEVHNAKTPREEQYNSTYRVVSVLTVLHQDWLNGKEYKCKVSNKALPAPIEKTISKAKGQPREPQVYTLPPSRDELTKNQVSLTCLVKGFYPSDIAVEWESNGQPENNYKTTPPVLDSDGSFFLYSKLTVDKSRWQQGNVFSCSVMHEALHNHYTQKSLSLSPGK", -0.221],
  ["DCIR (Homo sapiens), Q9UMR7 (protein) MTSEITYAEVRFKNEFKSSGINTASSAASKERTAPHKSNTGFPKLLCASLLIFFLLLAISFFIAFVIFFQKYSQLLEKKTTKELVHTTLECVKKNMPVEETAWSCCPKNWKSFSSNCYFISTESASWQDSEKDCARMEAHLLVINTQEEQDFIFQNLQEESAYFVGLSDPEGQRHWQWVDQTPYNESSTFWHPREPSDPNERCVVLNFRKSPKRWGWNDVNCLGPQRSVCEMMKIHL", -0.052],
  ["L-Selectin (Mus musculus), P18337 (protein) MVFPWRCEGTYWGSRNILKLWVWTLLCCDFLIHHGTHCWTYHYSEKPMNWENARKFCKQNYTDLVAIQNKREIEYLENTLPKSPYYYWIGIRKIGKMWTWVGTNKTLTKEAENWGAGEPNNKKSKEDCVEIYIKRERDSGKWNDDACHKRKAALCYTASCQPGSCNGRGECVETINNHTCICDAGYYGPQCQYVVQCEPLEAPELGTMDCIHPLGNFSFQSKCAFNCSEGRELLGTAETQCGASGNWSSPEPICQVVQCEPLEAPELGTMDCIHPLGNFSFQSKCAFNCSEGRELLGTAETQCGASGNWSSPEPICQETNRSFSKIKEGDYNPLFIPVAVMVTAFSGLAFLIWLARRLKKGKKSQERMDDPY", -0.235],
  ["Gal 4 (Mus musculus), P56470 (protein) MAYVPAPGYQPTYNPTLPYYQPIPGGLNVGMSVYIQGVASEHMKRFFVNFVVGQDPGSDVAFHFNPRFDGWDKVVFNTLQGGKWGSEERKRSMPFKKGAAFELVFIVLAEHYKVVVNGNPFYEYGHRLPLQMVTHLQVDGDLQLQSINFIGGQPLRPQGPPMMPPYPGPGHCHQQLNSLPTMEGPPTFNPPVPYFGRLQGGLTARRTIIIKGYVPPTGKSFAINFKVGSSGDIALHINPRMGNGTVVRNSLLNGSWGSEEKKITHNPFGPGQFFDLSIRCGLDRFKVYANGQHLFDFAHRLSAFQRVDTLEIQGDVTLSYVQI", -0.227]
]}

// provenance: the supplement of paper PMC8728848
